Experiment: yeast display, Sf9 membrane polyspecificity reagent, FACS + sequencing; frameworks hold sequencing errors
reported_metric: polyreactivity (PSR sort gate)

Below, 4 sequences whose answers are already recorded.
{"macromolecule_sequence": "QVQHVESGGGLVQAGGSLRLSGAASGRTFYKNTMGWSRQAPGKERELVAGISQRGGRTYYADSVKGRFTISRDYAKNTVYLQMNSLNPEDTAVYYCAVRSYVHGFDYWGQGTQVTVSS", "polyreactivity (PSR sort gate)": "high polyreactivity"}
{"macromolecule_sequence": "QVQLVESGGGLVQAGGSLRLSCAASGSIFRYYAMGWYRQAPGKERELVAAISSNGGSTYYADSVKGRFTISRDNAKNTVYLQMNSLKPEDTAVYYCAALFRRAPGYYWGQGTQVTVSS", "polyreactivity (PSR sort gate)": "high polyreactivity"}
{"macromolecule_sequence": "QVKLVESGGGLVQAGGSLRLSCAASGRTFYLYAMGWYRQAPGKERELVARITSGGTTNYADSVKGRFTISRDNAKNTVYLQMNSLKPEDTAVYYCAADPEGLGRVASRYFHFDYWGQGTQVTVSS", "polyreactivity (PSR sort gate)": "low polyreactivity"}
{"macromolecule_sequence": "QVQLVESGGGLVQAGGSLRLSCAASGRIFVGYAMGWYRQAPGKEREFVAAISRNGGRTYYADSVKGRFTISRDNAKNTVYLQMNSLKPEDTAVYYCATEKYVPSPGGYWGQGTQVTVSS", "polyreactivity (PSR sort gate)": "high polyreactivity"}

Now consider the entry below.
Q: Fill in reported polyreactivity (PSR sort gate) for this entry: QVQLVESGGGLVQAGGSLRFSCAASGSIFPYAMGWSIQEPGKERELVAAITSGVRTNYADSVKGRFTISRDNAKNPVDLQMNSLKPEATEVYYCAVLPRGSNGMDYWGQGTQVTVSS
Ans: low polyreactivity
